Attribution: PubChem BioAssay (NCI)

test system: MOLT-4 leukemia; experiment: NCI tumour cell line growth inhibition, 48 h
# key: entry, value: TGI
measurementType: TGI

compound | measurementType | dataValue
CC(=O)Nc1ccc(/C=C/C(=O)c2sc(C(N)=S)nc2C)cc1 | TGI | > 100 µM
CCOC(=O)C1C(c2ccc([N+](=O)[O-])cc2)NC(c2ccc([N+](=O)[O-])cc2)C(C(=O)OC)S1(=O)=O (centres undefined) | TGI | > 100 µM
CCOC(=O)c1c(Cl)c2c(n1Cc1cc(OC)cc(OC)c1)-c1oncc1CCC2 | TGI | > 100 µM
CNC(=S)NNC1=NCCCCN1 | TGI | > 100 µM
CCC(=C(c1ccc(OCc2ccccc2)cc1)c1ccc(OCc2ccccc2)cc1)c1ccc(OC)cc1 | TGI | > 100 µM
Cc1cc(C)nc(SC2=C(Nc3cccc(Cl)c3)C(=O)N(Cc3ccccc3)C2=O)n1 | TGI | > 170 µM
C#C[C@]1(O)CC[C@H]2[C@@H]3CCC4=C/C(=N\OCCN5CCCC5)CC[C@]4(C)[C@H]3CC[C@@]21C | TGI | 17.9 µM
COc1ccc(/C=C/[N+](=O)[O-])cc1 | TGI | 12.8 µM
CO[C@H](C(=O)N[C@@H](CCCCNC(=O)OCc1ccccc1)C(=O)OC(C)(C)C)[C@@H]1Cc2cc3cc(OC4CC(OC5CC(O)C(O)C(C)O5)C(O)C(C)O4)c(C)c(O)c3c(O)c2C(=O)[C@H]1OC1CC(OC2CC(OC3CC(C)(O)C(O)C(C)O3)C(O)C(C)O2)C(O)C(C)O1 (some centres undefined) | TGI | 2.73 µM
COc1ccc(N2C(=O)/C(=C\c3cc(OC)c(OC)c(OC)c3)S(=O)(=O)C2c2ccccc2)cc1 (centres undefined) | TGI | > 100 µM
CC1(C)OC(=O)CC12CCN(Cc1ccccc1)CC2 | TGI | > 100 µM
ON(CCc1ccccn1)Cc1ccccc1 | TGI | > 100 µM
Cc1c(Cl)ccc2c1NC(=O)C2(O)C1Cc2ccccc2C1=O (centres undefined) | TGI | > 100 µM
O=C1/C(=C/c2ccccc2)CCCC/C1=C\c1ccccc1 | TGI | > 100 µM
O=c1[nH]c2ccsc2c(=O)n1COCc1ccccc1 | TGI | > 100 µM
N#CC1=C(N2CCOCC2)CCC1 | TGI | > 100 µM
COC(=O)C1C(=O)O[C@@H](c2ccc(OC)cc2OC)C1C(=O)OC (some centres undefined) | TGI | > 100 µM
CCCCCCCCCC(=O)OCC1OC(n2cc(F)c(=O)[nH]c2=O)C(N)C(OC(=O)CCCCCCCCC)C1O (centres undefined) | TGI | 32.7 µM
O=C(O)c1cccc(CC(Br)C(=O)O)c1 (centres undefined) | TGI | > 100 µM
COC(=O)C(=O)C(C(=O)C(=O)Nc1cc([N+](=O)[O-])ccc1[N+](=O)[O-])c1nc2ccc(C(=O)c3ccccc3)cc2[nH]c1=O (centres undefined) | TGI | 61.5 µM
CSc1sc(=S)sc1SC | TGI | > 100 µM
O=C(Nc1ccccc1)C(=O)C(C(=O)c1ccccc1)C(c1ccccc1)c1ccccc1 (centres undefined) | TGI | > 10 µM
CCN(CC)CCOc1cc2c(C(=O)OC)c(C)oc2cc1C(C)=O | TGI | 7.5 µM
Cc1cc(NCC2CC/C(=C\C=C\c3ccccc3)C2=O)no1 (centres undefined) | TGI | > 100 µM
Cc1ccc2[nH]c(=O)c(C(C#N)c3ccccc3)nc2c1 (centres undefined) | TGI | > 100 µM
CC(=O)OCC1OC(S[As](C)C)C(OC(C)=O)C1OC(C)=O (centres undefined) | TGI | 0.765 µM
Nc1nccc(Nc2ccc(S(N)(=O)=O)cc2)n1 | TGI | > 100 µM
Cc1ccccc1NC(=O)/C(C#N)=N\Nc1nc[nH]c1C(N)=O | TGI | > 100 µM
COc1ccccc1NC(=O)C1=C(C)NC(C)=C(C(=O)Nc2ccccc2OC)C1c1ccccc1OC | TGI | > 100 µM
